# ASSAY: in vitro
# STUDY CONDITIONS: human, hela cells, % viability
PROPERTY LABEL: viability at 28.5 h, 10 µM (%)
Numeric only. Scale: %

{"COMPOUND": "Nc1nc(SCC(=O)NCCCO)nc2sc3c(c12)CCCC3", "viability at 28.5 h, 10 µM, %": 87.8}
{"COMPOUND": "O=C1NCC(c2ccccc2)C1C(=O)N/N=C\\c1cc(O)ccc1[N+](=O)[O-] (stereo not shown)", "viability at 28.5 h, 10 µM, %": 91.8}
{"COMPOUND": "CC(C)Oc1ccc(-c2cc(C(=O)NCc3ccncc3)c3ccccc3n2)cc1", "viability at 28.5 h, 10 µM, %": 106}
{"COMPOUND": "COc1ccc(Nc2nccc3c2nnn3C)cc1", "viability at 28.5 h, 10 µM, %": 80.9}
{"COMPOUND": "O=c1[nH]c2ncc(-c3ccc(-c4ccccc4)cc3)nc2n1Cc1cccnc1", "viability at 28.5 h, 10 µM, %": 94}

[Q] // returns reported viability at 28.5 h, 10 µM for input Cc1cccc(OCc2nnc(SCC(=O)Nc3cccc4ccccc34)o2)c1C
[A] 108

[Q] Next entry: COc1cccc(NC(=O)O[C@@H]2CC[C@]3(C)C(CC[C@H]4OC(=O)C[C@H]43)[C@]2(C)CO)c1 (stereo partly shown)
[A] 95.2

[Q] Next entry: CCc1cc2cc3c(cc2nc1SCC(=O)Nc1nc(C)c(C)s1)OCO3
[A] 94.8

[Q] Next entry: N#Cc1ccc(-c2cncc(NC3CCC(O)CC3)n2)cc1 (stereo not shown) [CBK166007T]
[A] 88.2

[Q] Next entry: CCCC12CN3CC(C)(CN(C1)C31C(=O)Nc3ccc(C)cc31)C2=O (stereo not shown)
[A] 113

###

# ASSAY: in vitro
# STUDY CONDITIONS: human, hela cells, % viability
Parameter: viability at 28.5 h, 10 µM. Scope: all listed entries.
Include the unit right after the number.

{"COMPOUND": "Nc1cc(N)nc(SCc2ccccc2)n1", "viability at 28.5 h, 10 µM": "96.1%"}
{"COMPOUND": "CCN(CC)C(=O)c1cccc(NS(=O)(=O)c2ccc(C)c(C(=O)O)c2)c1", "viability at 28.5 h, 10 µM": "111%"}
{"COMPOUND": "CCC(O)c1cc2n(n1)CCN(C(=O)c1cn(-c3ccccc3)nn1)C2 (stereo not shown)", "viability at 28.5 h, 10 µM": "93.7%"}
{"COMPOUND": "O=C(O)CCCNS(=O)(=O)c1ccc([N+](=O)[O-])cc1", "viability at 28.5 h, 10 µM": "93.1%"}
{"COMPOUND": "CCOc1cccc(-c2cn3ccnc3c(NCc3cc(OC)c(OC)c(OC)c3)n2)c1", "viability at 28.5 h, 10 µM": "96.7%"}

[Q] // returns reported viability at 28.5 h, 10 µM for input Clc1cncc(NCCc2c[nH]c3ccccc23)n1
[A] 56.8%

[Q] Next entry: COCc1ccccc1Cn1cnc2ccccc21
[A] 100%

[Q] Next entry: CC1CCN(C(=O)C[C@@H]2O[C@H](CNS(=O)(=O)c3ccccc3)[C@@H](O)[C@H]2O)CC1
[A] 89.7%

[Q] Next entry: O=C(Nc1ccc2c(c1)OCO2)N1CCN(c2ccc(F)cc2)CC1
[A] 86.3%

[Q] Next entry: Cc1nc(-c2nnc(NC(=O)COc3ccc(Cl)cc3Cl)o2)cs1
[A] 109%

[Q] Next entry: Cc1cccc(Cn2cnc(NC(=O)Nc3cccc(Cl)c3C)n2)c1
[A] 89.5%

[Q] Next entry: COCc1[nH]nc(O)c1Cc1c(Cl)cccc1Cl
[A] 91%

[Q] Next entry: CN1CCN([C@H]2[C@@H]3OC[C@@H](O3)[C@@H](NCc3ccc(N(C)C)cc3)[C@@H]2O)CC1
[A] 109%

[Q] Next entry: CC(C)(C)c1ccccc1NC(=O)N(Cc1cc(F)cc(F)c1)CC1CCNCC1
[A] 108%

[Q] Next entry: CCC(CO)NC(=O)C1(Cc2ccc(-c3cc(C)cc(C)c3)cc2)CCOCC1 (stereo not shown)
[A] 90.8%

###

Parameter: viability at 28.5 h, 10 µM. Scope: all listed entries.
# ASSAY: in vitro
# STUDY CONDITIONS: human, hela cells, % viability
Numeric only. Scale: %

{"MOLECULE": "CN1CCN(C(=O)Nc2ccc(Cc3ccc(NC(=O)N4CCN(C)CC4)cc3)cc2)CC1", "PROPERTY LABEL": "viability at 28.5 h, 10 µM", "RESULT NUMBER": 104}
{"MOLECULE": "Cc1sc(NC(=O)CN2CCOCC2)c(C(=O)c2ccccc2)c1C", "PROPERTY LABEL": "viability at 28.5 h, 10 µM", "RESULT NUMBER": 109}
{"MOLECULE": "COc1ccc([N+](=O)[O-])cc1NC(=O)CSc1nnnn1C", "PROPERTY LABEL": "viability at 28.5 h, 10 µM", "RESULT NUMBER": 93}
{"MOLECULE": "COc1cccc(CN2CCOC3(CCN(C(=O)OCc4ccccc4)CC3)C2)c1 [CBK161098T]", "PROPERTY LABEL": "viability at 28.5 h, 10 µM", "RESULT NUMBER": 95.4}
{"MOLECULE": "Cc1cc(C)n(CC(=O)N2CCCCC2C(=O)O)n1 (stereo not shown)", "PROPERTY LABEL": "viability at 28.5 h, 10 µM", "RESULT NUMBER": 91.3}

[Q] // returns reported viability at 28.5 h, 10 µM for input CC1(CNC(=O)c2cc(C3CC3)nc3ccccc23)COC1
[A] 90

[Q] Next entry: O=C(O)C1(Oc2ccc3ccccc3c2)CCN(CC2CCOC2)CC1 (stereo not shown)
[A] 91.4

[Q] Next entry: Cc1ccc(S(=O)(=O)N2CCN(C(=O)C3CCCCC3C(=O)O)CC2)cc1C (stereo not shown)
[A] 97

[Q] Next entry: CCCCNc1cc(N2CCOC(c3cnn(CC)c3)C2)nc(N)n1 (stereo not shown)
[A] 93.8

[Q] Next entry: Cc1cc(CNS(=O)(=O)c2ccc(-c3ccon3)s2)no1
[A] 103

###

# ASSAY: in vitro
# STUDY CONDITIONS: human, hela cells, % viability
PROPERTY LABEL: viability at 28.5 h, 10 µM (%)
Numeric only. Scale: %

{"MOLECULE": "Cc1nn(C)c(Cl)c1S(=O)(=O)NCc1cc(C)n(C)n1", "viability at 28.5 h, 10 µM / %": 94.5}
{"MOLECULE": "COc1ccccc1CNc1ncnc2[nH]ncc12", "viability at 28.5 h, 10 µM / %": 99.5}

[Q] // returns reported viability at 28.5 h, 10 µM for input CN(C)C(=O)c1cccc(-c2nccnc2NCc2cccc([N+](=O)[O-])c2)c1
[A] 94.3

###

# ASSAY: in vitro
# STUDY CONDITIONS: human, hela cells, % viability
Parameter: viability at 28.5 h, 10 µM. Scope: all listed entries.
Numeric only. Scale: %

Some entries whose results are on file:
{"SMILES INPUT": "Cn1nc2c(c1C(=O)NCC(C)(C)N1CCCCC1)CCCC2", "viability at 28.5 h, 10 µM [%]": 94.4}
{"SMILES INPUT": "CCCc1[nH]nc(O)c1CCc1cccc(OC)c1OC", "viability at 28.5 h, 10 µM [%]": 97}
{"SMILES INPUT": "CC(C)[C@H](CO)Nc1cncc(-c2cccc(N(C)C)c2)n1", "viability at 28.5 h, 10 µM [%]": 81.9}

[Q] // returns reported viability at 28.5 h, 10 µM for input COCCNc1nc(-c2ccc([N+](=O)[O-])cc2)nc2ccccc12
[A] 109

[Q] Next entry: O=C(O)c1cc(-c2cccnc2)nc2ccc(Br)cc12
[A] 105

[Q] Next entry: COc1ccc(C(C)C)cc1-c1cncc(N[C@@H](C)c2ccccc2)n1
[A] 115

###

Parameter: viability at 28.5 h, 10 µM. Scope: all listed entries.
# ASSAY: in vitro
# STUDY CONDITIONS: human, hela cells, % viability
Numeric only. Scale: %

{"COMPOUND": "CC1=C[C@@H](CNS(=O)(=O)c2ccccc2)[C@H](C(C)C)C[C@H]1CC(=O)N1CCOCC1", "RESULT NUMBER": 79.7}
{"COMPOUND": "CCn1ncc(CN2C3CCC2CC(O)(c2ccc(F)cc2)C3)c1C (stereo not shown)", "RESULT NUMBER": 100}
{"COMPOUND": "COCc1nc2n(n1)CC(NC1CCCc3sccc31)CC2 (stereo not shown)", "RESULT NUMBER": 90.1}
{"COMPOUND": "O=C(O)c1ccc2c(c1)C(=O)N(c1cccc(/C=C/C(=O)c3cccc(N4C(=O)c5ccc(C(=O)O)cc5C4=O)c3)c1)C2=O", "RESULT NUMBER": 89.8}
{"COMPOUND": "Cc1ccc(-c2csc(NC(=O)c3ccc(F)cc3)n2)cc1", "RESULT NUMBER": 85.2}

[Q] // returns reported viability at 28.5 h, 10 µM for input NC(=O)CC1C(=O)N(c2ccc(F)cc2)C(=O)N1NC(=O)CCc1ccccc1 (stereo not shown)
[A] 104

[Q] Next entry: CCC(C)(C)C(=O)Nc1ccc(Cl)nc1
[A] 96.4
